Listing of recorded IC50 by entry.
System: HL-60
Test: Cytotoxicity against human HL60 cells assessed as cell viability after 24 hrs by tryptan blue staining-based cell counting
Assay type: functional
Settings: HL-60, 24 h

C=C(C)C(O)CCC(=C)[C@@H]1CCC(C)=C[C@H]1c1c(O)cc(C)cc1O (mixture of isomers) = > 13.7 µM

Q: Requested read-out: IC50. Entry: C=C(C)C(O)CCC(=C)[C@@H]1CC[C@](C)(O)[C@H]2Oc3cc(C)cc(O)c3[C@@H]12 (stereo partly drawn)
Ans: > 20 µM

Q: Requested read-out: IC50. Entry: "C=C(C/C=C/C(C)(C)O)[C@@H]1CC[C@](C)(O)[C@H]2Oc3cc(C)cc(O)c3[C@@H]12"
Ans: > 20 µM
